# experimental-target: binding partner of C5A (XPA23)
# assay-notes: Biacore K-off
quantity-measured: log10(fold difference in affinity vs original) (log10 of the value in fold)
Field: value | Transform: log10 | Quantity: fold difference in affinity vs original | Unit: fold

Example results:
| binder | observed-measurement |
| --- | --- |
| C5A (XPA23) VL D92K (antibody, V domains shown) VH: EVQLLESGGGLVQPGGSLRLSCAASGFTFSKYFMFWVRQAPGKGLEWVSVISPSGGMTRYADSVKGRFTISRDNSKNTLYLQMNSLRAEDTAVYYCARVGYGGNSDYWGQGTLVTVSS VL: DIQMTQSPSSVSASVGDRLTIICRASQDINRWLAWYQQTPGNAPKLLIHSATSLQSGVPSRFSGSGSGTDFTLTINSLQPEDFATYYCQQAKSFPLTFGGGTKVEIK | -0.64 |
| C5A (XPA23) VL S50Y (antibody, V domains shown) VH: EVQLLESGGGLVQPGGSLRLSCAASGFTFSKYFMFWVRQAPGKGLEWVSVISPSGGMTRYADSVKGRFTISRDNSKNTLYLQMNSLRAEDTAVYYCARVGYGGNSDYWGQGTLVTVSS VL: DIQMTQSPSSVSASVGDRLTIICRASQDINRWLAWYQQTPGNAPKLLIHYATSLQSGVPSRFSGSGSGTDFTLTINSLQPEDFATYYCQQADSFPLTFGGGTKVEIK | -1.30 |
| C5A (XPA23) VL R31T (antibody, V domains shown) VH: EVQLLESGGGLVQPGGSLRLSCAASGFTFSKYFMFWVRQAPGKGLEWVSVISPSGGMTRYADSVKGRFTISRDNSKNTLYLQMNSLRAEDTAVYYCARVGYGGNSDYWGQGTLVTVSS VL: DIQMTQSPSSVSASVGDRLTIICRASQDINTWLAWYQQTPGNAPKLLIHSATSLQSGVPSRFSGSGSGTDFTLTINSLQPEDFATYYCQQADSFPLTFGGGTKVEIK | -0.62 |
| C5A (XPA23) VL S53F (antibody, V domains shown) VH: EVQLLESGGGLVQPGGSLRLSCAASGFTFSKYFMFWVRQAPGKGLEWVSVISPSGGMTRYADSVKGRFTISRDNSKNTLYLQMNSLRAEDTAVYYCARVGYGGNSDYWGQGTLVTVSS VL: DIQMTQSPSSVSASVGDRLTIICRASQDINRWLAWYQQTPGNAPKLLIHSATFLQSGVPSRFSGSGSGTDFTLTINSLQPEDFATYYCQQADSFPLTFGGGTKVEIK | 0.09 |
| C5A (XPA23) VH S30N (antibody, V domains shown) VH: EVQLLESGGGLVQPGGSLRLSCAASGFTFNKYFMFWVRQAPGKGLEWVSVISPSGGMTRYADSVKGRFTISRDNSKNTLYLQMNSLRAEDTAVYYCARVGYGGNSDYWGQGTLVTVSS VL: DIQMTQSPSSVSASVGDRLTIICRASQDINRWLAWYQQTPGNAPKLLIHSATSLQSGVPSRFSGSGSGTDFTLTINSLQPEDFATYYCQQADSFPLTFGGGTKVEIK | -0.82 |
| C5A (XPA23) VH S30T (antibody, V domains shown) VH: EVQLLESGGGLVQPGGSLRLSCAASGFTFTKYFMFWVRQAPGKGLEWVSVISPSGGMTRYADSVKGRFTISRDNSKNTLYLQMNSLRAEDTAVYYCARVGYGGNSDYWGQGTLVTVSS VL: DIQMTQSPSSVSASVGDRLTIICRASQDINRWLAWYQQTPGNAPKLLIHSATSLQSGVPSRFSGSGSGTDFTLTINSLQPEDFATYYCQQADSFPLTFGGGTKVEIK | -1.22 |

Query: // returns reported log10(fold difference in affinity vs original) for input C5A (XPA23) VH F33T (antibody, V domains shown) VH: EVQLLESGGGLVQPGGSLRLSCAASGFTFSKYTMFWVRQAPGKGLEWVSVISPSGGMTRYADSVKGRFTISRDNSKNTLYLQMNSLRAEDTAVYYCARVGYGGNSDYWGQGTLVTVSS VL: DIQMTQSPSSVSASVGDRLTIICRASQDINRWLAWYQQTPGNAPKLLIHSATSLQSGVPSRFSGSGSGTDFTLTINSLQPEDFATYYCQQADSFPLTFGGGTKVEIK
Reply: -0.11

Query: So what's the measured log10(fold difference in affinity vs original) for this one? C5A (XPA23) VH F33A (antibody, V domains shown) VH: EVQLLESGGGLVQPGGSLRLSCAASGFTFSKYAMFWVRQAPGKGLEWVSVISPSGGMTRYADSVKGRFTISRDNSKNTLYLQMNSLRAEDTAVYYCARVGYGGNSDYWGQGTLVTVSS VL: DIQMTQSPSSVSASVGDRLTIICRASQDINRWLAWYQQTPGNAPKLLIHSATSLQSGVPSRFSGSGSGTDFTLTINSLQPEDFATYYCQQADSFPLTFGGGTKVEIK
Reply: -0.12

Query: Need log10(fold difference in affinity vs original) of C5A (XPA23) VL D28E (antibody, V domains shown) VH: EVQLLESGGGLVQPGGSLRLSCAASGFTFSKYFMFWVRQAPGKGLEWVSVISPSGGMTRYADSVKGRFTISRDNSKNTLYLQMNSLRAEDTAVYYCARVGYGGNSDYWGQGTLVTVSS VL: DIQMTQSPSSVSASVGDRLTIICRASQEINRWLAWYQQTPGNAPKLLIHSATSLQSGVPSRFSGSGSGTDFTLTINSLQPEDFATYYCQQADSFPLTFGGGTKVEIK , thanks.
Reply: -0.13

Query: // query log10(fold difference in affinity vs original) value for entry C5A (XPA23) VL R31K (antibody, V domains shown) VH: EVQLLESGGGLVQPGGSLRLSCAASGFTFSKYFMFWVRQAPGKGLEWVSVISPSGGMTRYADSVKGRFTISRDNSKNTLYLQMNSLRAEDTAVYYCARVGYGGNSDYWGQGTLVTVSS VL: DIQMTQSPSSVSASVGDRLTIICRASQDINKWLAWYQQTPGNAPKLLIHSATSLQSGVPSRFSGSGSGTDFTLTINSLQPEDFATYYCQQADSFPLTFGGGTKVEIK
Reply: 0.07
